Test system: Candida albicans ATCC 10231
Experiment: Antifungal susceptibility by microbroth dilution (CLSI)
Assay type: cell-based
Conditions: Table 1; 48 h, >90% inhibition of growth
Please respond with reported MIC for every item in the list.

List the reported MIC of each compound below.
1. CCCCC(O)(Cc1cn(-c2ccc(Cl)cc2O)nn1)c1ccccc1 (stereo not shown)
2. CCC(O)(c1ccccc1)c1cn(-c2ccc(Cl)cc2O)nn1 (stereo not shown) [Compound 2db]
3. CCC(O)(c1ccccc1)c1cn(-c2ccc(Cl)cc2O)nn1 (stereo not shown) [Compound 1db]
4. CCC(O)(c1ccccc1)c1cn(-c2cc(Cl)ccc2O)nn1 (stereo not shown)

Reply:
1. >128 µg/mL
2. 128 µg/mL
3. 32 µg/mL
4. 16 µg/mL

----------
System: Candida albicans ATCC 10231
Assay: Antifungal susceptibility by microbroth dilution (CLSI)
Assay type: cell-based
Conditions: Candida albicans, ATCC10231; Table 2; read-out: MIC values
Please respond with reported MIC for every item in the list.
One number for each entry, in µg/mL.

# annotated cases, reported MIC shown
1. CC(O)(Cc1cn(-c2ccc(F)cc2O)nn1)c1ccc(Cl)cc1Cl (stereo not drawn) [Compound 3bc] ... 8
2. CC(O)(Cc1cn(-c2cc(Cl)ccc2O)nn1)c1ccc(F)cc1 (stereo not drawn) [Compound 3da] ... 32
3. CC(O)(Cc1cn(-c2ccc(F)cc2O)nn1)c1ccc(Br)cc1 (stereo not drawn) [Compound 3fc] ... 16
4. CC(O)(Cc1cn(-c2cc(Cl)ccc2O)nn1)c1ccc(F)cc1F (stereo not drawn) [Compound 3aa] ... 32
5. CC(O)(Cc1cn(-c2ccc(Cl)cc2O)nn1)c1ccc(Cl)cc1Cl (stereo not drawn) [Compound 3bb] ... 16

List the reported MIC of each compound below.
1. CC(O)(Cc1cn(-c2ccc(Cl)cc2O)nn1)c1ccc(Br)cc1 (stereo not drawn) [Compound 3fb]
2. CC(O)(Cc1cn(-c2cc(Cl)ccc2O)nn1)c1ccc(Cl)cc1 (stereo not drawn) [Compound 3ea]
3. CC(O)(Cc1cn(-c2ccc(Cl)cc2O)nn1)c1ccc(Cl)cc1 (stereo not drawn) [Compound 3eb]
4. CC(O)(Cc1cn(-c2ccc(Cl)cc2O)nn1)c1ccc(F)cc1F (stereo not drawn) [Compound 3ab]

Reply:
1: 16; 2: 8; 3: 16; 4: 32

----------
quantity: melting point

1) CCC(O)(Cc1cn(-c2ccc(Cl)cc2O)nn1)c1ccccc1 (centres unmarked) ... 129 to 131 °C
2) CCC(O)(Cc1cn(-c2cc(Cl)ccc2O)nn1)c1ccccc1 (centres unmarked) ... 153 to 155 °C
3) Oc1ccc(Cl)cc1-n1cc(CC(O)c2ccccc2)nn1 (centres unmarked) ... 148 to 150 °C
4) Oc1ccc(Cl)cc1-n1cc(CC(O)(c2ccccc2)c2ccccc2)nn1 ... 194 to 196 °C

Switching to the query record.
Query: If you can, please state the reported melting point value of CC(O)(c1ccccc1)c1cn(-c2ccc(Cl)cc2O)nn1 (centres unmarked) .
Reply: 232 to 234 °C

----------
System: Candida albicans ATCC 24433
Assay: Antifungal susceptibility by microbroth dilution (CLSI)
Assay type: cell-based
Details: Candida albicans, ATCC24433; Table 2; read-out: MIC values
Please respond with reported MIC for every item in the list.
One number for each entry, in µg/mL.

# annotated cases, reported MIC shown
1. CC(O)(Cc1cn(-c2ccc(Cl)cc2O)nn1)c1ccc(F)cc1 (stereo not shown) ... 16
2. Oc1cc(Cl)ccc1-n1cc(CC(O)c2ccc(C(F)(F)F)cc2F)nn1 (stereo not shown) ... 16
3. CC(O)(Cc1cn(-c2cc(Cl)ccc2O)nn1)c1ccc(Cl)cc1 (stereo not shown) ... 16
4. CC(O)(Cc1cn(-c2cc(Cl)ccc2O)nn1)c1ccc(F)cc1F (stereo not shown) ... 32
5. CC(O)(Cc1cn(-c2cc(Cl)ccc2O)nn1)c1ccc(F)cc1 (stereo not shown) ... 32
6. CC(O)(Cc1cn(-c2ccc(Cl)cc2O)nn1)c1ccc(Cl)cc1Cl (stereo not shown) ... 4
7. CC(O)(Cc1cn(-c2ccc(Cl)cc2O)nn1)c1ccc(F)cc1F (stereo not shown) ... 16
8. CC(O)(Cc1cn(-c2ccc(Cl)cc2O)nn1)c1ccc(Cl)cc1 (stereo not shown) ... 32

List the reported MIC of each compound below.
1. CC(O)(Cc1cn(-c2ccccc2O)nn1)c1ccc(Cl)cc1 (stereo not shown)
2. CC(O)(Cc1cn(-c2ccc(F)cc2O)nn1)c1ccc(F)cc1 (stereo not shown)
3. CC(O)(Cc1cn(-c2ccccc2O)nn1)c1ccc(F)cc1 (stereo not shown)
4. CC(O)(Cc1cn(-c2ccc(F)cc2O)nn1)c1ccc(F)cc1F (stereo not shown)
5. CC(O)(Cc1cn(-c2ccccc2O)nn1)c1ccc(Cl)cc1Cl (stereo not shown)
6. CC(O)(Cc1cn(-c2ccc(F)cc2O)nn1)c1ccc(Br)cc1 (stereo not shown)
7. CC(O)(Cc1cn(-c2ccccc2O)nn1)c1ccc(Br)cc1 (stereo not shown)
8. CC(O)(Cc1cn(-c2ccc(Cl)cc2O)nn1)c1ccc(Br)cc1 (stereo not shown)

Reply:
1. 8
2. 64
3. 64
4. 8
5. 8
6. 8
7. 32
8. 16

List the reported MIC of each compound below.
1. CC(O)(Cc1cn(-c2ccc(F)cc2O)nn1)c1ccc(Cl)cc1Cl (stereo not shown)
2. CC(O)(Cc1cn(-c2ccccc2O)nn1)c1ccc(F)cc1F (stereo not shown)
3. Oc1cc(F)ccc1-n1cc(CC(O)c2ccc(C(F)(F)F)cc2F)nn1 (stereo not shown)

Reply:
[16, 8, 128]
